Experiment: Quantitative High-Throughput drug screen in 47 multiple myeloma cell lines against the NCATS MIPE library collection: OCIMY5_PLB cell viability assay (AID 1918988); further: nearly all actives have a fitted effect of over 65% in size
Conditions: OCI-MY5 myeloma viability, ATP luminescence, 48 h; series mostly up to 45.8 µM
Results filed as inconclusive are left out. Active and inactive are the calls of the source. The call rests on the fitted dose curve; in most records, active means well fitted cell-killing curve with a large enough effect; inconclusive means small, poorly fitted or top-dose-only effect, or effect the other way; inactive means no such curve, though single readings can be large or run the other way.
Hi! Could you answer with just one of these? yes (1) = active, no (0) = inactive

Tell me the assay call for "Cc1ccc(-n2nc(C(C)(C)C)cc2NC(=O)Nc2ccc(OCCN3CCOCC3)c3ccccc23)cc1" please.
yes (1)

Lookup "CO[C@@H]1[C@H](N(C)C(=O)c2ccccc2)C[C@H]2O[C@]1(C)n1c3ccccc3c3c4c(c5c6ccccc6n2c5c31)C(=O)NC4"
yes (1)

Same question for CC(C)(C)NCC(O)c1ccc(O)c(CO)c1 (centres undefined) please.
yes (1)

Further, for "C[C@H](NC(=O)Cc1cc(F)cc(F)c1)C(=O)N[C@@H]1C(=O)N(C)c2ccccc2-c2ccccc21" ?
yes (1)

And the next one, COc1cccc2cc(-c3nc(C4CCC(C(=O)O)CC4)n4ncnc(N)c34)[nH]c12 (centres undefined) ?
yes (1)

Moving on to the next molecule: "Nc1ncnc2nc(-c3ccc(N4CCOCC4)nc3)cc(-c3cccc(Br)c3)c12"
yes (1)

// query: "Cc1cc(-c2ccc(CC(=O)Nc3ccc(-c4cccnc4)cc3)cc2)ccn1"
yes (1)

Same again, this time with O=C(O)COCCN1CCN(C(c2ccccc2)c2ccc(Cl)cc2)CC1 (centres undefined)
no (0)

Note, next up: "CCN(c1ccccc1)c1cc(NC)[n+](C)c(C)n1"
yes (1)

###

System: PC15
Assay: qHTS profiling for inhibitors of Plasmodium falciparum proliferation (AID 504749); further: nearly all actives have a fitted effect of over 60% in size
Conditions: P. falciparum in erythrocytes, SYBR Green DNA, 72 h; series mostly up to 28.7 µM
Description: NIH National Institute of Allergy and Infectious Diseases [NIAID] NIH Chemical Genomics Center [NCGC] […] Because mature erythrocytes lack DNA, only Plasmodium-derived DNA is detected. NCGC Assay Protocol Summary: The SYBR Green viability assay was adapted from a method described previously (Plouffe et al., 2008). […] The following morning, fluorescence intensity at 485(14) nm excitation and 535(25) nm emission wavelengths was measured on an EnVision (Perkin Elmer) plate reader. […]
Records with an inconclusive call do not appear. The source made the active and inactive calls. The call rests on the fitted dose curve; in most records, active means well fitted inhibition curve with a large enough effect; inconclusive means small, poorly fitted or top-dose-only effect; inactive means flat fitted curve, though single readings scatter.
Classes to choose from: TRUE = active, FALSE = inactive

// outcome(item) with item = "NC[C@H](O)c1ccc(O)c(O)c1"
FALSE

Can you check "CCCc1nn(C)c2c(=O)[nH]c(-c3cc(S(=O)(=O)N4CCN(C)CC4)ccc3OCC)nc12" next?
FALSE

Try the compound "CN1CCN(CCCN2c3ccccc3Sc3ccc(C(F)(F)F)cc32)CC1"
TRUE

Same for OC(CN1CCC(Cc2ccc(F)cc2)CC1)c1ccc(Cl)cc1 (stereo not drawn)
TRUE

Queued: "O=NN(CCCl)C(=O)NCCCl"
FALSE

Same lookup for "NS(=O)(=O)c1cc2c(cc1Cl)NC=NS2(=O)=O" , please.
FALSE

Repeat for the following compound: "C1COC(NC(C2CC2)C2CC2)=N1"
FALSE

Item: "Cc1ccc(N(CC2=NCCN2)c2cccc(O)c2)cc1"
FALSE

And what about the compound "NC(N)=NC(=O)c1nc(Cl)c(N)nc1N" ?
TRUE

Same thing, different compound: CC(c1cc2ccccc2s1)N(O)C(N)=O (stereo not drawn)
FALSE

Please answer likewise for "Clc1cccc(Cl)c1NC1=NCCN1"
FALSE

Now try "Nc1nc2ccc(OC(F)(F)F)cc2s1" .
FALSE

CC(C)NCC(O)COc1ccc(COCCOC(C)C)cc1 (stereo not drawn) ?
FALSE

// same read-out, input: "O=c1[nH]cnc2[nH]ncc12"
FALSE

Another: "Cc1[nH]c(=O)c(C#N)cc1-c1ccc2nccn2c1"
FALSE

Quick one: "CCCCNc1cc(C(=O)O)cc(S(N)(=O)=O)c1Oc1ccccc1"
FALSE

"Cc1cn[nH]c1" ?
FALSE

One more compound: Oc1ccc(C2CNCCc3c2cc(O)c(O)c3Cl)cc1 (stereo not drawn)
FALSE

Another: "CC(=O)Oc1ccccc1C(=O)O"
FALSE

Another: COc1ccc2nc(S(=O)Cc3ncc(C)c(OC)c3C)[nH]c2c1 (stereo not drawn)
FALSE

Repeat for the following compound: CC(C[N+](C)(C)C)OC(N)=O (stereo not drawn)
FALSE

Now try "CCOC(=O)N1CCC(=C2c3ccc(Cl)cc3CCc3cccnc32)CC1" .
TRUE

Next compound up: "NNCCc1ccccc1"
FALSE
